- target-desc: hGLP-1R (Homo sapiens, UniProt P43220)
- Sequence (P43220 24-463): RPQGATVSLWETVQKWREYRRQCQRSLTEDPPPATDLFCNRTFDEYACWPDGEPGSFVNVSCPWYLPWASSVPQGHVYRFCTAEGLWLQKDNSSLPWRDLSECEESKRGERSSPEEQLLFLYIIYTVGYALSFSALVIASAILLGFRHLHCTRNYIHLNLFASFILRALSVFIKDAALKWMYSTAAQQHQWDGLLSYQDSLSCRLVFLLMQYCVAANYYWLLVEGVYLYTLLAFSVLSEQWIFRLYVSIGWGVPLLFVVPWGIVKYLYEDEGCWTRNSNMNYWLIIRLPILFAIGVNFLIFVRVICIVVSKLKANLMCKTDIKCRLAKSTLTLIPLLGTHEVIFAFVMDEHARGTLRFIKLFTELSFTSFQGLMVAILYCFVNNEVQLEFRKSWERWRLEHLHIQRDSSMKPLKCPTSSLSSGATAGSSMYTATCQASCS
- experiment-summary: cell-based or functional assay
Lab note: anything with cAMP Rel EC50 at or over 0.1 µM counts as satisfied; the rest go in not satisfied.

{"binder": "YXQGTFTSDXSQXLDKKAQXAFIEYLIEXGPSSGAPPPSGSGE (not fully specified; synthetic construct; SITE 2: note = 2-Aminoisobutyric Acid; SITE 10: note = 3-(4-Pyridyl)-L-alanine; SITE 13: note = alpha-methyl-leucine; SITE 17: note = Lysine is chemically modified through conjugation of the epsilon-amino group of the Lysine side chain with (gamma-Glu)2-CO-(CH2)16-CO2H; SITE 20:) [Example 893 (SEQ ID NO: 899)]", "category": "satisfied"}
{"binder": "YXQGTFTSDFSQXLDKKAQXAFIEYLIAGGPSSGAPPPSGS (not fully specified; synthetic construct; SITE 2: note = 2-Aminoisobutyric Acid; SITE 13: note = alpha-methyl-leucine; SITE 17: note = Lysine is chemically modified through conjugation of the epsilon-amino group of the Lysine side chain with (gamma-Glu)2-CO-(CH2)16-CO2H; SITE 20: note = 3-(4-Pyridyl)-L-alanine; SITE 41:) [Example 876 (SEQ ID NO: 882)]", "category": "not satisfied"}
{"binder": "YXQGTFTSDXSQXLDKKAQXAFIEYLIEXGPSSGAPPPSGSGE (not fully specified; C-terminus uncertain, likely amide; synthetic construct; SITE 2: note = 2-Aminoisobutyric Acid; SITE 10: note = 3-(4-Pyridyl)-L-alanine; SITE 13: note = alpha-methyl-leucine; SITE 17: note = Lysine is chemically modified through conjugation of the epsilon-amino group of the Lysine side chain with (gamma-Glu)2-CO-(CH2)16-CO2H; SITE 20:) [Example 891 (SEQ ID NO: 897)]", "category": "satisfied"}
{"binder": "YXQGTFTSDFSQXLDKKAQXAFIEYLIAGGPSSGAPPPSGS (synthetic construct; SITE 2: note = 2-Aminoisobutyric Acid; SITE 13: note = alpha-methyl-leucine; SITE 17: note = Lysine is chemically modified through conjugation of the epsilon-amino group of the Lysine side chain with (2-[2-(2-Amino-ethoxy)-ethoxy]-acetyl)-(gamma-Glu)-CO-(CH2) 16-CO2H; SITE 20: n) [Example 875 (SEQ ID NO: 881)]", "category": "not satisfied"}
{"binder": "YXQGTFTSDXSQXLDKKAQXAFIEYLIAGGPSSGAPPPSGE (synthetic construct; SITE 2: note = 2-Aminoisobutyric Acid; SITE 10: note = 3-(4-Pyridyl)-L-alanine; SITE 13: note = alpha-methyl-leucine; SITE 17: note = Lysine is chemically modified through conjugation of the epsilon-amino group of the Lysine side chain with (gamma-Glu)2-CO-(CH2)16-CO2H; SITE 20:) [Example 883 (SEQ ID NO: 889)]", "category": "satisfied"}

IN: Hello, I need to know if YXQGTFTSDFSQXLDKKAQXAFIEYLIEXGPSSGAPPPSGS (not fully specified; synthetic construct; SITE 2: note = 2-Aminoisobutyric Acid; SITE 13: note = alpha-methyl-leucine; SITE 17: note = Lysine is chemically modified through conjugation of the epsilon-amino group of the Lysine side chain with (gamma-Glu)3-CO-(CH2)16-CO2H; SITE 20: note = 3-(4-Pyridyl)-L-alanine; SITE 29:) [Example 862 (SEQ ID NO: 868)] has measured cAMP Rel EC50 not below 0.1 µM. Thanks!
OUT: satisfied
